Hi there, I'd appreciate the recorded Max MFI for every entry that follows.
Biological target: T1, human CLDN18.2 (human)
T1 construct: also called huCLDN18.2; hCLDN18.2
Assay: flow cytometry titration, PA-TU-8988S-High cells

Read the entry hCl1e (antibody, human IgG1, kappa, V domains shown, Humanized) VH: QVQLVQSGAEVKKPGASVKVSCKASGYTFTDYAMYWVRQAPGQRLEWMGWINTYTGKPTYAQKFQGRVTITRDTSASTAYMELSSLRSEDTAVYYCARAVFYGYTMDAWGQGTLVTVSS VL: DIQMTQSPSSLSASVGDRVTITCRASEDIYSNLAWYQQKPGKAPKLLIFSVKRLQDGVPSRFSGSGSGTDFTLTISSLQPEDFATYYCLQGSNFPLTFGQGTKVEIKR and write its reported Max MFI. 1860 MFI

Read the entry hCl1i (antibody, human IgG1, kappa, V domains shown, Humanized) VH: QVQLVQSGAEVKKPGASVKVSCKASGYTFTDYAMYWVRQAPGQRLEWMGWINAYTGKPTYAQKFQGRVTITRDTSASTAYMELSSLRSEDTAVYYCARAVYYGYTMDAWGQGTLVTVSS VL: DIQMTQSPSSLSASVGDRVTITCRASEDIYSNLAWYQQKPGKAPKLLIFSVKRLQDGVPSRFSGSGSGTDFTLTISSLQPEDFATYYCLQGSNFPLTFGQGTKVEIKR and write its reported Max MFI. 2090 MFI

Read the entry hCl1f (antibody, human IgG1, kappa, V domains shown, Humanized) VH: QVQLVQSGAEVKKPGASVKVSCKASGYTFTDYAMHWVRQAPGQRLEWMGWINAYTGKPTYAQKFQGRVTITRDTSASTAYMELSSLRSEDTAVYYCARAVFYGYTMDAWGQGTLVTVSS VL: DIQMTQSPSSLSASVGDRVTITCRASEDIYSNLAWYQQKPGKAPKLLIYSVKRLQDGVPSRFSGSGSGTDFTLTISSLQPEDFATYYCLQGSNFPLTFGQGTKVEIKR and write its reported Max MFI. 1600 MFI
